Target: T1, TNFR1 (Homo sapiens, UniProt P19438)
T1 chain: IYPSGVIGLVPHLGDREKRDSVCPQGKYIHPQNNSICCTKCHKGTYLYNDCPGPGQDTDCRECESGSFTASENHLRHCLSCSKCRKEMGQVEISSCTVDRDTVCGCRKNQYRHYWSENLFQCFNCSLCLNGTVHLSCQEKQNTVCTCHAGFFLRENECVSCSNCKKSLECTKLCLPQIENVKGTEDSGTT
Test: yeast display SC50
Value Type: apparent Kd (screen) (pM)

Recorded apparent Kd (screen), per entry:
A88S (designed binder) MTLQELLREEALRRAEAEAFRYALELLAEKFPEQKEYLLDLAEEIESQIRSLSGVDVEDVRKFLDKEWAWVKELLAEHPAELAEVEASRAARLAELRAEVEAKVAA :: 539
A80W (designed binder) MTLQELLREEALRRAEAEAFRYALELLAEKFPEQKEYLLDLAEEIESQIRSLSGVDVEDVRKFLDKEWAWVKELLAEHPWELAEVEAARAARLAELRAEVEAKVAA :: 446
E73S (designed binder) MTLQELLREEALRRAEAEAFRYALELLAEKFPEQKEYLLDLAEEIESQIRSLSGVDVEDVRKFLDKEWAWVKSLLAEHPAELAEVEAARAARLAELRAEVEAKVAA :: 539
A87V (designed binder) MTLQELLREEALRRAEAEAFRYALELLAEKFPEQKEYLLDLAEEIESQIRSLSGVDVEDVRKFLDKEWAWVKELLAEHPAELAEVEVARAARLAELRAEVEAKVAA :: 539
E101W (designed binder) MTLQELLREEALRRAEAEAFRYALELLAEKFPEQKEYLLDLAEEIESQIRSLSGVDVEDVRKFLDKEWAWVKELLAEHPAELAEVEAARAARLAELRAEVWAKVAA :: 490
R14V (designed binder) MTLQELLREEALRVAEAEAFRYALELLAEKFPEQKEYLLDLAEEIESQIRSLSGVDVEDVRKFLDKEWAWVKELLAEHPAELAEVEAARAARLAELRAEVEAKVAA :: 956

(A) R89W (designed binder) MTLQELLREEALRRAEAEAFRYALELLAEKFPEQKEYLLDLAEEIESQIRSLSGVDVEDVRKFLDKEWAWVKELLAEHPAELAEVEAAWAARLAELRAEVEAKVAA
(B) E101R (designed binder) MTLQELLREEALRRAEAEAFRYALELLAEKFPEQKEYLLDLAEEIESQIRSLSGVDVEDVRKFLDKEWAWVKELLAEHPAELAEVEAARAARLAELRAEVRAKVAA
Prompt line: Between item A and item B , which reported apparent Kd (screen) is smaller? I would appreciate it if you answered with the label of your choice.
Response line: B
(B: 490 pM, A: 956 pM)
